Test system: Trypanosoma cruzi
Assay Method Text: Antitrypanosomal activity against nifurtimox-sensitive Trypanosoma cruzi Tulahuen CL2 infected in human MRC-5 SV2 cells assessed as inhibition of parasite growth measured after 7 days by spectrophotometric analysis
Assay type: functional, organism-based
Experimental Setup: Tulahuen CL2, MRC-5 SV2, 168 h
Listing: log10 of IC50 of selected compounds
Log scale reminder: IC50 in µM, then log10 taken.

Nc1ncnc2c1c(-c1ccc(F)cc1)nn2[C@@H]1O[C@H](CO)[C@@H](O)[C@H]1O ... 0.53
Nc1ncnc2c1c(-c1ccc(Cl)cc1)nn2[C@@H]1O[C@H](CO)C[C@H]1O ... 0.02
Nc1ncnc2c1c(-c1ccc(OC(F)(F)F)cc1)nn2[C@@H]1O[C@H](CO)[C@@H](O)[C@H]1O ... 1.19
Nc1ncnc2c1c(-c1cc(F)c(Cl)c(F)c1)nn2[C@@H]1O[C@H](CO)[C@@H](O)[C@H]1O ... 0.12
NCc1nn([C@@H]2O[C@H](CO)[C@@H](O)[C@H]2O)c2ncnc(N)c12 ... 1.05

Recorded log10 of IC50 for "N#Cc1ccc(-c2nn([C@@H]3O[C@H](CO)[C@@H](O)[C@H]3O)c3ncnc(N)c23)cc1" , please?
1.51

====

Test system: CYP450
Assay Method Text: Metabolic stability of the compound in mouse liver microsomes S9 fraction assessed as CYP450-mediated metabolism by measuring parent compound remaining at 5 uM measured after 30 mins in presence of NADPH by UPLC-MS analysis
Type: ADME, subcellular
Experimental Setup: read-out: Stabilty
Observation Type: remaining at 0.5 h, 5 µM (%)
Only the number, expressed in %, is required.

Recorded remaining at 0.5 h, 5 µM for "Nc1ncnc2c1c(-c1ccc(Cl)cc1)nn2[C@@H]1O[C@H](CO)[C@@H](O)[C@H]1O" , please?
103

====

Assay Method Text: Selectivity index, ratio of LC50 for cytotoxicity against Swiss Webster mouse 2D cardiomyocytes to IC50 for antitrypanosomal activity against intracellular amastigote form of Trypanosoma cruzi Y infected in Swiss Webster mouse cardiomyocytes
Type: toxicity, cell-based
Experimental Setup: read-out: Ratio LC50/IC50
Observation Type: selectivity ratio

Recorded selectivity ratio for "Nc1ncnc2c1c(-c1ccc(Cl)cc1)nn2[C@@H]1O[C@H](CO)[C@@H](O)[C@H]1O" , please?
> 1900

====

Test system: Leishmania infantum
Assay Method Text: Antileishmanial activity against amastigote form of Leishmania infantum MHOM/MA(BE)/67 infected in Swiss mouse peritoneal macrophages assessed as reduction in parasite growth treated at 2 hrs post-infection and measured after 5 days by Giemsa staining based microscopic analysis
Type: functional, organism-based
Experimental Setup: MHOM/MA(BE)/67, Peritoneal macrophage
pIC50: −log10 of the molar value.
Listing: pIC50 of selected molecules

Below, 5 molecules whose answers are already recorded.
CC(C)c1nn([C@@H]2O[C@H](CO)[C@@H](O)[C@H]2O)c2ncnc(N)c12 ... < 4.19
Nc1ncnc2c1c(I)nn2[C@@H]1O[C@H](CO)[C@@H](O)[C@H]1O ... 4.60
Oc1ncnc2[nH]ncc12 ... 5.45
Nc1ncnc2c1c(CN1CCOCC1)nn2[C@@H]1O[C@H](CO)[C@@H](O)[C@H]1O ... < 4.19
O=c1[nH]cnc2c1cnn2[C@@H]1O[C@H](CO)C[C@H]1O ... < 4.19

Recorded pIC50 for "COc1ccc(-c2nn([C@@H]3O[C@H](CO)[C@@H](O)[C@H]3O)c3ncnc(N)c23)cc1" , please?
< 4.19

Value source: ChEMBL document CHEMBL4811241
